Data origin, for the record: patent US20260042764A1

Below: a set of entries, each annotated with reported pIC50.
- experimental-target: Avi-KRAS G12D (1-169) GppNHp/RAF1 RBD-3xFLAG (52-151) (Homo sapiens, UniProt P01116, G12D)
- Construct: Avi-KRAS G12D (1-169)
- Sequence (P01116 1-169 isoform P01116-2 G12D): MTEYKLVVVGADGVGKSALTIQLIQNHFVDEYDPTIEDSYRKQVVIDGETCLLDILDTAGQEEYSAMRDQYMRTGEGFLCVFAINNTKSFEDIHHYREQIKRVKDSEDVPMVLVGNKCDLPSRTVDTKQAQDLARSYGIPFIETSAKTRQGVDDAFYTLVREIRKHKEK
- assay-details: Raf1-KRAS G12D-GppNHP disruption HTRF assay (Biological Example 1)
- Type: binding
- condition: KRAS G12D-GppNHp/RAF1 RBD HTRF
pIC50: −log10 of the molar value.

query: Which measured pIC50 value corresponds to C[C@@H]1[C@H](N(C)c2nc(OC[C@@]34CCCN3C[C@H](F)C4)nc3c(F)c(-c4ccc(F)c5sc(N)c(C#N)c45)c(C(F)(F)F)cc23)CCN1C(=O)C1CC1 (atropisomer, axis not shown) [Compound 334] ?
result: < 5.00

query: Which measured pIC50 value corresponds to CCN(c1nc(OC[C@@]23CCCN2C[C@H](F)C3)nc2c(F)c(-c3ccc(F)c4sc(N)c(C#N)c34)c(C(F)(F)F)cc12)[C@H]1CCN(C(=O)C2CCC2)C1 (atropisomer, axis not shown) ?
result: > 7.00

query: Which measured pIC50 value corresponds to CCN(c1nc(OC[C@@]23CCCN2C[C@H](F)C3)nc2c(F)c(-c3ccc(F)c4sc(N)c(C#N)c34)c(C(F)(F)F)cc12)[C@H]1CCN(C(=O)CC#N)C1 (atropisomer, axis not shown) ?
result: > 7.00

query: Which measured pIC50 value corresponds to `CN(c1nc(OC[C@@]23CCCN2C[C@H](F)C3)nc2c(F)c(-c3ccc(F)c4sc(N)c(C#N)c34)c(C(F)(F)F)cc12)C12CC(CO)(C1)C2` ?
result: 6.00 to 7.00

query: Which measured pIC50 value corresponds to `CCN(c1nc(OC[C@@]23CCCN2C[C@H](F)C3)nc2c(F)c(-c3ccc(F)c4sc(N)c(C#N)c34)c(C(F)(F)F)cc12)[C@@H]1CCN(C(=O)C2CC2)C1` ?
result: 6.00 to 7.00

query: Which measured pIC50 value corresponds to `CCC(=O)N1CC[C@](C)(N(C)c2nc(OC[C@@]34CCCN3C[C@H](F)C4)nc3c(F)c(-c4ccc(F)c5sc(N)c(C#N)c45)c(C(F)(F)F)cc23)C1` ?
result: 6.00 to 7.00

query: Which measured pIC50 value corresponds to CCN(c1nc(OC[C@@]23CCCN2C[C@H](F)C3)nc2c(F)c(-c3ccc(F)c4sc(N)c(C#N)c34)c(C(F)(F)F)cc12)[C@H]1CCN(C(=O)C(C)C)C1 (atropisomer, axis not shown) [Compound 468] ?
result: < 5.00

query: Which measured pIC50 value corresponds to CCC(=O)N1CC[C@@H](N(C)c2nc(OC[C@]34CCCN3C[C@H](F)C4)nc3c(F)c(-c4ccc(F)c5sc(N)c(C#N)c45)c(C(F)(F)F)cc23)[C@H]1C (atropisomer, axis not shown) ?
result: 5.00 to 6.00

query: Which measured pIC50 value corresponds to `CN1C[C@H](N(C)c2nc(OC[C@@]34CCCN3C[C@H](F)C4)nc3c(F)c(-c4ccc(F)c5sc(N)c(C#N)c45)c(C(F)(F)F)cc23)CCC1=O` ?
result: 5.00 to 6.00

query: Which measured pIC50 value corresponds to CC[C@@H](C)C(=O)N1CC[C@H](N(CC)c2nc(OC[C@@]34CCCN3C[C@H](F)C4)nc3c(F)c(-c4ccc(F)c5sc(N)c(C#N)c45)c(C(F)(F)F)cc23)C1 (atropisomer, axis not shown) ?
result: > 7.00

More entries:
query: Which measured pIC50 value corresponds to `CC(=O)N1CC[C@@H](N(C)c2nc(OC[C@@]34CCCN3C[C@H](F)C4)nc3c(F)c(-c4ccc(F)c5oc(N)c(C#N)c45)c(C(F)(F)F)cc23)[C@H]1C` ?
result: 6.00 to 7.00

query: Which measured pIC50 value corresponds to `C[C@@H]1[C@H](N(C)c2nc(OC[C@@]34CCCN3C[C@H](F)C4)nc3c(F)c(-c4ccc(F)c5sc(N)c(C#N)c45)c(C(F)(F)F)cc23)CCN1C(=O)C1(C)CC1` ?
result: 6.00 to 7.00

###

Below: a set of entries, each annotated with reported pIC50.
- experimental-target: Avi-KRAS G12R (1-169) GppNHp/RAF1 RBD-3xFLAG (52-151) (Homo sapiens, UniProt P01116, G12R)
- Construct: Avi-KRAS G12R (1-169)
- Sequence (P01116 1-169 isoform P01116-2 G12R): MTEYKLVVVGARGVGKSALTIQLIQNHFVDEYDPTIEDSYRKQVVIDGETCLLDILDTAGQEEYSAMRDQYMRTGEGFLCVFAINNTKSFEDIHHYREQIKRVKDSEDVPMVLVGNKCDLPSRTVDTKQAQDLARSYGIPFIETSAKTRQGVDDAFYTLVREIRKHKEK
- assay-details: Raf1-KRAS G12R-GppNHP disruption HTRF assay (Biological Example 1)
- Format: binding
- condition: KRAS G12R, GppNHp-loaded; Table 11
pIC50: −log10 of the molar value.

Check out these entries, answers already filled in.
query: Which measured pIC50 value corresponds to `C[C@H]1C[C@H](O)CCN1c1nc(OC[C@@]23CCCN2C[C@H](F)C3)nc2c(F)c(-c3ccc(F)c4sc(N)c(C#N)c34)c(C(F)(F)F)cc12` ?
result: 6.00 to 7.00

query: Which measured pIC50 value corresponds to `CN(c1nc(OCC23CCCN2CCC3)nc2c(F)c(-c3ccc(F)c4sc(N)c(C#N)c34)c(C(F)(F)F)cc12)[C@H]1C[C@@H](O)C1` ?
result: > 7.00

Next up:
query: Which measured pIC50 value corresponds to CCC(=O)N1CC[C@@H](N(C)c2nc(OC[C@@]34CCCN3C[C@H](F)C4)nc3c(F)c(-c4ccc(F)c5sc(N)c(C#N)c45)c(C(F)(F)F)cc23)[C@H]1C [Compound 116] ?
result: 6.00 to 7.00

###

Below: a set of entries, each annotated with reported IC50.
- experimental-target: Avi-KRAS WT (1-169) GppNHp/RAF1 RBD-3xFLAG (52-151) (Homo sapiens)
- Construct: Avi-KRAS WT (1-169)
- Sequence (P01116 1-169 isoform P01116-2): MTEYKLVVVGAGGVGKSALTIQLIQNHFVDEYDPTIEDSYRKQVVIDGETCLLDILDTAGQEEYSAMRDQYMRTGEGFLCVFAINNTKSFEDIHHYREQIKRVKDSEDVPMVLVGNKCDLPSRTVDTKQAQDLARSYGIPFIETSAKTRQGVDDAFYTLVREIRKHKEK
- assay-details: Raf1-KRAS WT-GppNHP disruption HTRF assay (Biological Example 1)
- Type: binding
- condition: KRAS WT, GppNHp-loaded; class symbols

query: Which measured IC50 value corresponds to CCN(c1nc(OC[C@@]23CCCN2C[C@H](F)C3)nc2c(F)c(-c3ccc(F)c4sc(N)c(C#N)c34)c(C(F)(F)F)cc12)[C@@H]1C[C@H](C)N(C(=O)C2COC2)C1 (atropisomer, axis not shown) [Compound 630] ?
result: 100 to 1000 nM

More entries:
query: Which measured IC50 value corresponds to CCN(c1nc(OC[C@@]23CCCN2C[C@H](F)C3)nc2c(F)c(-c3ccc(F)c4sc(N)c(C#N)c34)c(C(F)(F)F)cc12)[C@H]1CCN(C(=O)C=C(C)C)C1 (atropisomer, axis not shown) [Compound 675] ?
result: < 100 nM

query: Which measured IC50 value corresponds to CCN(c1nc(OC[C@@]23CCCN2C[C@H](F)C3)nc2c(F)c(-c3ccc(F)c4sc(N)c(C#N)c34)c(C(F)(F)F)cc12)[C@H]1CCN(C(=O)c2cnco2)C1 (atropisomer, axis not shown) [Compound 708] ?
result: < 100 nM

query: Which measured IC50 value corresponds to CCN(c1nc(OC[C@@]23CCCN2C[C@H](F)C3)nc2c(F)c(-c3ccc(F)c4sc(N)c(C#N)c34)c(C(F)(F)F)cc12)[C@H]1C[C@@H]2CN(C)C(=O)N2C1 (atropisomer, axis not shown) [Compound 605] ?
result: < 100 nM

query: Which measured IC50 value corresponds to CCN(c1nc(OC[C@@]23CCCN2C[C@H](F)C3)nc2c(F)c(-c3ccc(F)c4sc(N)c(C#N)c34)c(C(F)(F)F)cc12)[C@H]1CCN(C(=O)OC2CC(F)C2)C1 (some centres unmarked) [Compound 776] ?
result: 100 to 1000 nM

query: Which measured IC50 value corresponds to CCN(c1nc(OC[C@@]23CCCN2C[C@H](F)C3)nc2c(F)c(-c3ccc(F)c4sc(N)c(C#N)c34)c(C(F)(F)F)cc12)[C@H]1CCN(C(=O)[C@H]2C[C@H]2F)C1 (atropisomer, axis not shown) [Compound 750] ?
result: < 100 nM

query: Which measured IC50 value corresponds to CCN(c1nc(OC[C@@]23CCCN2C[C@H](F)C3)nc2c(F)c(-c3ccc(F)c4sc(N)c(C#N)c34)c(C(F)(F)F)cc12)[C@H]1CCN(C(=O)N2CC3CC(C2)O3)C1 [Compound 651] ?
result: < 100 nM

query: Which measured IC50 value corresponds to N#Cc1c(N)sc2c(F)ccc(-c3c(C(F)(F)F)cc4c(N(C5CC5)[C@H]5CCS(=O)(=O)C5)nc(OC[C@@]56CCCN5C[C@H](F)C6)nc4c3F)c12 [Compound 702] ?
result: 1000 to 10000 nM
